Known k′ NaV1.5 of a selection of molecules
Biological target: NaV1.5 (Homo sapiens, UniProt Q14524)
Sequence (Q14524 whole entry): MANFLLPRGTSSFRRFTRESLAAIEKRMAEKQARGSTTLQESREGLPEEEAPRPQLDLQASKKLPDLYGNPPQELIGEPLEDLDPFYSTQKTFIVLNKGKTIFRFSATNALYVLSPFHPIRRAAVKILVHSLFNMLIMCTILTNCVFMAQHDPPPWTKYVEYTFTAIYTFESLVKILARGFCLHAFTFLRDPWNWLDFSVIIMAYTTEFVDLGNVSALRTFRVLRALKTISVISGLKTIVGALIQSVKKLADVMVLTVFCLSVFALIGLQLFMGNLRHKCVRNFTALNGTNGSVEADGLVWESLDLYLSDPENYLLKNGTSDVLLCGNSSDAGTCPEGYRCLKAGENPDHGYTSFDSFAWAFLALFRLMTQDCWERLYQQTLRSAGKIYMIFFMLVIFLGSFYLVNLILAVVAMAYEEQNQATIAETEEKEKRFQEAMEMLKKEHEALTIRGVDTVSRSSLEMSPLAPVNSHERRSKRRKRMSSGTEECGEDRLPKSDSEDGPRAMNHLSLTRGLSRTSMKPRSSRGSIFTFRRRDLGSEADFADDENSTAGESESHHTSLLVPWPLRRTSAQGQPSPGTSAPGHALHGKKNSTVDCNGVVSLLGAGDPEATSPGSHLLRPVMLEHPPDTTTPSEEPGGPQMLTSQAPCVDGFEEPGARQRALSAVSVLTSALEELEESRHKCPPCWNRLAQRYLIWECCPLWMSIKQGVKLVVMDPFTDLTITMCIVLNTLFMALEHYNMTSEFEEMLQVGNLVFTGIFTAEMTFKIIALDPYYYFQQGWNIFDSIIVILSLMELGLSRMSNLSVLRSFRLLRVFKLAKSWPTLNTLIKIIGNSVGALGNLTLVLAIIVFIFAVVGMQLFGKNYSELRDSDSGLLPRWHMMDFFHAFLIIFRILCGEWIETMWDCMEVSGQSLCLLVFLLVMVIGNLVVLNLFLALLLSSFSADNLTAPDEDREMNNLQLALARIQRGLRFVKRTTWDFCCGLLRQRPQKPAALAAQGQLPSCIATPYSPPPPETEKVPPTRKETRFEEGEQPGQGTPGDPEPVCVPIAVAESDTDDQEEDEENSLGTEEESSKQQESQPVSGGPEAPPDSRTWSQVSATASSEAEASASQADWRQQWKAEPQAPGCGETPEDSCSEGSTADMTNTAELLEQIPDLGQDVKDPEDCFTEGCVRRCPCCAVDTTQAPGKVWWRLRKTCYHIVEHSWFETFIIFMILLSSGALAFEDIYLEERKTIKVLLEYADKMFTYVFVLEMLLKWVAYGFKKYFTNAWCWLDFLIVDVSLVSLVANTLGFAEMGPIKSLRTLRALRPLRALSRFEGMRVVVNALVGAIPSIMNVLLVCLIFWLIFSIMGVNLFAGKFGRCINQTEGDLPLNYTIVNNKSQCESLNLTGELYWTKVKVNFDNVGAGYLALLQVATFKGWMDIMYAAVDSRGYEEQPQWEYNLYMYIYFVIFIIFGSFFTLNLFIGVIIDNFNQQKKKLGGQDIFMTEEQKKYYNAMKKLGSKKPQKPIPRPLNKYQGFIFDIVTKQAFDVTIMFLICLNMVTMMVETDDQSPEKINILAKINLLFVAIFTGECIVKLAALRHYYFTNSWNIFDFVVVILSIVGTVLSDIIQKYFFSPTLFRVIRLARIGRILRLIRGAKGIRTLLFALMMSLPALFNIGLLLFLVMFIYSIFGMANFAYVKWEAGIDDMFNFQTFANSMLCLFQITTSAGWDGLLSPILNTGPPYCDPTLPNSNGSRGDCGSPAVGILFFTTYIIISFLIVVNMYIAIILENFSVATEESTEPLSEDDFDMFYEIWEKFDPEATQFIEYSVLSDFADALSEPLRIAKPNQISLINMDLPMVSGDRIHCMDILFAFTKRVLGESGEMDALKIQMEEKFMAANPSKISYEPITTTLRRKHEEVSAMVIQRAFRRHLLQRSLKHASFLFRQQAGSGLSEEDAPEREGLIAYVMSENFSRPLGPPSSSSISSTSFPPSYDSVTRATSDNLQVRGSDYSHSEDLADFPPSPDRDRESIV
Assay: Cell membrane chromatography
Assay type: binding
Settings: capacity factor k′; reflects potential cardiac toxicity; k′ < 0 labeled as 0
Simply state the number, no unit and no words.

Illustrative cases are given below, each with its answer.
COC(=O)c1scc(C)c1NC(=O)CN1CCN(C(C)C)CC1	5.8
COC(=O)c1scc(C)c1NC(=O)C(C)NCCN1CCOCC1 (centres unmarked)	72.4
COC(=O)c1scc(C)c1NC(=O)C(C)N1CCOCC1C (centres unmarked)	28
COC(=O)c1scc(C)c1NC(=O)C(C)N1CCN(CC2CC2)CC1 (centres unmarked)	22
COC(=O)c1scc(C)c1NC(=O)C(C)N1CCN(C(C)(C)C)CC1 (centres unmarked)	116.4
COC(=O)c1scc(C)c1NC(=O)C(C)N1CCN(C)CC1 (centres unmarked)	8

Any idea what k′ NaV1.5 was measured for COC(=O)c1scc(C)c1NC(=O)C(C)N1CC(C)CC(C)C1 (centres unmarked) ?
71.2

Same question for CCCN1CCN(C(C)C(=O)Nc2c(C)csc2C(=O)OC)CC1 (centres unmarked) please.
42.4
